// data source = patent US20100273814A1

Molecular target: alpha2B receptor (Homo sapiens, UniProt P18089)
Construct: expressed in transfected cells; host or cells: NIH-3T3 cells
Sequence (P18089 1-450): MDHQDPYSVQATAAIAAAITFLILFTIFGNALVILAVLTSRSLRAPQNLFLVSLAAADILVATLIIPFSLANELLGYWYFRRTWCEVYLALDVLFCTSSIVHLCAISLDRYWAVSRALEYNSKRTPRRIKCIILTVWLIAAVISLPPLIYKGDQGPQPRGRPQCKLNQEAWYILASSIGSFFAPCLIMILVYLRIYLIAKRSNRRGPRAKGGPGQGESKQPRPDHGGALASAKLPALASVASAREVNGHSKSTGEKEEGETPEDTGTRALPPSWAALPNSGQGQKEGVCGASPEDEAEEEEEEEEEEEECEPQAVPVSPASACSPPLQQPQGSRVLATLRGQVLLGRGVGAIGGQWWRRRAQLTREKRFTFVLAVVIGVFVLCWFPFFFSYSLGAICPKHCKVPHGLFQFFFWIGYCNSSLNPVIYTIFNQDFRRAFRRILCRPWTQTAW
Assay: Receptor Selection and Amplification Technology (RSAT) assay, alpha2B
Type: cell-based
Conditions: RSAT; ratio of maximal effect to that of standard full agonist brimonidine (UK14304); value in brackets
Please use YES whenever Alpha 2B intrinsic activity (efficacy) is not below 1, and NO whenever it is.

Fc1ccccc1C(c1ccccn1)c1c[nH]cn1 (stereo not drawn) = NO
Cc1ccccc1C(c1ccccn1)c1c[nH]cn1 (stereo not drawn) = NO
Fc1cccc(C(c2ccccn2)c2c[nH]cn2)c1 (stereo not drawn) = NO
Cc1cccc(C(c2cccnc2)c2c[nH]cn2)c1C (stereo not drawn) = YES
Fc1cccc(C(c2ccncc2)c2c[nH]cn2)c1 (stereo not drawn) = NO
Fc1c(C(c2ccncc2)c2c[nH]cn2)cccc1C(F)(F)F (stereo not drawn) = YES
Fc1cccc(C(c2ccncc2)c2c[nH]cn2)c1F (stereo not drawn) = NO
Fc1c(Cl)cccc1C(c1ccccn1)c1cnc[nH]1 (stereo not drawn) = YES

Q) Threshold query (Alpha 2B intrinsic activity (efficacy) >= 1) on Fc1cccc(C(c2ccccn2)c2c[nH]cn2)c1F (stereo not drawn)
A) YES

---

Molecular target: alpha2C receptor (Homo sapiens)
Construct: expressed in transfected cells; host or cells: NIH-3T3 cells
Sequence (P18825 1-462): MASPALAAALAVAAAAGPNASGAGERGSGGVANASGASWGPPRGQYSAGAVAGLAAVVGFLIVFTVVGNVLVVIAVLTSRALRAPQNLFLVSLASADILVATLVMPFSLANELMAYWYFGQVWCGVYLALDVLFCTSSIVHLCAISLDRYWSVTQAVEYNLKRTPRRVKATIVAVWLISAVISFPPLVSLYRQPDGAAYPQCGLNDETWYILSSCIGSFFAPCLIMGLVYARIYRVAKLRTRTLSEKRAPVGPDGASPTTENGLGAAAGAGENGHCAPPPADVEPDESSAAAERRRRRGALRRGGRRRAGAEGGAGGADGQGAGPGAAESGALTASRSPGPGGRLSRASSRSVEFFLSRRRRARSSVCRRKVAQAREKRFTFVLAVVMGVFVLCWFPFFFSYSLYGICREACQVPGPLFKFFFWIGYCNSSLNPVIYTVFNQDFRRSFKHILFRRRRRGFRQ
Test: Receptor Selection and Amplification Technology (RSAT) assay, alpha2C
Type: cell-based
Conditions: RSAT; ratio of maximal effect to that of standard full agonist brimonidine (UK14304); value in brackets
Answer each item with its documented Alpha 2C intrinsic activity (efficacy).
Give bare numbers.

Fc1c(C(c2ccncc2)c2c[nH]cn2)cccc1C(F)(F)F (stereo not drawn) = 0.29

Would you mind listing Alpha 2C intrinsic activity (efficacy) for each of the following compounds?
1. c1ccc(C(c2ccccn2)c2c[nH]cn2)cc1 (stereo not drawn)
2. Fc1cccc(C(c2cccnc2)c2c[nH]cn2)c1F (stereo not drawn)
3. Cc1ccccc1C(c1cccnc1)c1c[nH]cn1 (stereo not drawn)
4. Cc1c(F)cccc1C(c1ccncc1)c1c[nH]cn1 (stereo not drawn)

A)
[0.09, 0.85, 0.29, 0.27]
